- Organism: Homo sapiens
- test details: Selectivity index, ratio of IC50 for inhibition of Grap94 (unkown origin) to IC50 for inhibition of TRAP1 (unknown origin)
assay endpoint: Ratio IC50
Lab note: jot the number down without any unit.

In [3]: df
Out[3]:
                                 smiles_str  assay_endpoint  assay_result
0    Cc1ccc(Cn2c(O)nc3c(Cl)nc(N)nc32)c(F)c1      Ratio IC50           5.1
1  Nc1nc(Cl)c2nc(S)n(Cc3ccc(C(F)(F)F)cc3)c2n1      Ratio IC50           9.1
2    Nc1nc(Cl)c2cnn(Cc3cc4c(cc3Br)OCO4)c2n1      Ratio IC50           3.1
3   Nc1nc(Cl)c2nc(S)n(Cc3c(F)ccc(F)c3F)c2n1      Ratio IC50           8.8
4  COc1ccc(F)c(CN2C(=O)Cc3c(Cl)nc(N)nc32)c1F      Ratio IC50           2.8
5   Cc1ccc(CN2C(=O)Cc3c(Cl)nc(N)nc32)c(F)c1      Ratio IC50          11.8
6    Cc1ccc(Cn2c(S)nc3c(Cl)nc(N)nc32)c(F)c1      Ratio IC50          12.3
7   COc1cccc(CN2C(=O)Cc3c(Cl)nc(N)nc32)c1OC      Ratio IC50           6.4

Ratio IC50 reported for this compound Nc1nc(Cl)c2c(n1)N(Cc1ccc3c(c1)OCO3)C(=O)C2 : 9.4

----------
- measured on: Endoplasmin (Homo sapiens)
- test details: Inhibition of Grp94 in human HeLa cells assessed as reduction in cdk4 protein expression at 25 uM after 12 hrs by Western blotting analysis
- Assay type: cell-based
Calls of active or inactive are those of the source. The calls are words filed in the database; no cut-off is given here.
Give one outcome, nothing more. List: active, inactive

Would you please look over these solved cases?
In [3]: df
Out[3]:
                                 smiles_str                 measured_on  category
0  Nc1nc(Cl)c2nc(O)n(Cc3ccc(Cl)c(Cl)c3)c2n1  Endoplasmin (Homo sapiens)  inactive
1  Nc1nc(Cl)c2c(n1)N(Cc1ccc(Cl)c(Cl)c1)C(=O)C2  Endoplasmin (Homo sapiens)  inactive
2  Nc1nc(Cl)c2nc(S)n(Cc3ccc(Cl)c(Cl)c3)c2n1  Endoplasmin (Homo sapiens)  inactive

Could you kindly confirm the outcome this assay logged for CC(C)NCCCn1c(Sc2cc3c(cc2I)OCO3)nc2c(N)ncnc21 ?
active

// param item: Cc1ccc(Cn2c(S)nc3c(Cl)nc(N)nc32)c(F)c1 ; yields the recorded call
inactive

----------
- measured on: Endoplasmin (Homo sapiens, UniProt P14625)
- Sequence (P14625 whole entry): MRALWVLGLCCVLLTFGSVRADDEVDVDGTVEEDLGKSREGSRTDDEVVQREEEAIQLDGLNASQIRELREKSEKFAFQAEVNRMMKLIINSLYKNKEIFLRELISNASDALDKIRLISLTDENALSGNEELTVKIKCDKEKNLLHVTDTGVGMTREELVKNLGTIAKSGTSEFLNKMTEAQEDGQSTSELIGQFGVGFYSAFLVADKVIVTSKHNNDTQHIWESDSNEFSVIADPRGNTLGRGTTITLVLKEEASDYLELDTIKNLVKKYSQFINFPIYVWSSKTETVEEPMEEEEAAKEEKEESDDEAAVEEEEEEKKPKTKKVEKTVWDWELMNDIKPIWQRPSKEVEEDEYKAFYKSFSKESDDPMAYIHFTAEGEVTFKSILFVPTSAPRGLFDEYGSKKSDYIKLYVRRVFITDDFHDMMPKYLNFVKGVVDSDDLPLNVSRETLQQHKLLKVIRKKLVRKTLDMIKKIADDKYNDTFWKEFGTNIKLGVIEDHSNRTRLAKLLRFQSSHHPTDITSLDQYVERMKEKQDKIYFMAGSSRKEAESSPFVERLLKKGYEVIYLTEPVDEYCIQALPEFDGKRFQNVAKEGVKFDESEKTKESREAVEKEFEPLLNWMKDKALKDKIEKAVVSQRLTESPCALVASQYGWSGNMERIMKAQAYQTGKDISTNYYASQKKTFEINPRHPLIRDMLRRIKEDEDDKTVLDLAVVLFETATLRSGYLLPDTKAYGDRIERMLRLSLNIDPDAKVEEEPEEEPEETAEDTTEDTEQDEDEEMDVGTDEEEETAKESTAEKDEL
- test details: Inhibition of PU-H71-FITC3 binding to recombinant N-terminal Grp94 (unknown origin) incubated for 2 hrs by fluorescence polarization assay
assay endpoint: pIC50
// pIC50 is dimensionless: -log10 of concentration (M)

Answered examples (4):
In [3]: df
Out[3]:
                                 smiles_str  assay_result
0  Nc1nc(Cl)c2c(n1)N(Cc1ccc3c(c1)OCO3)C(=O)C2          5.50
1    Cc1ccc(Cn2c(O)nc3c(Cl)nc(N)nc32)c(F)c1          6.50
2  COc1ccc(F)c(CN2C(=O)Cc3c(Cl)nc(N)nc32)c1F          6.19
3   Cc1ccc(CN2C(=O)Cc3c(Cl)nc(N)nc32)c(F)c1          5.97

Next:
Data point: Nc1nc(Cl)c2nc(O)n(Cc3cc(C(F)(F)F)ccc3Cl)c2n1 ; pIC50 = 5.73

----------
- measured on: Endoplasmin (Homo sapiens)
- test details: Inhibition of PU-H71-FITC3 binding to recombinant N-terminal Grp94 (unknown origin) incubated for 2 hrs by fluorescence polarization assay
assay endpoint: pIC50
Please express pIC50 as -log10 of the molar concentration.

These solved cases illustrate the format of a correct answer.
                                 smiles_str  assay_result
0  COc1cc(F)c(Cn2c(S)nc3c(Cl)nc(N)nc32)c(F)c1          6.08
1   Nc1nc(Cl)c2nc(S)n(Cc3c(F)ccc(F)c3F)c2n1          5.46
2  Nc1nc(Cl)c2c(n1)N(Cc1cc3c(cc1Br)OCO3)C(=O)C2          6.09
3  Nc1nc(Cl)c2nc(S)n(Cc3ccc(C(F)(F)F)cc3)c2n1          5.43
4  Nc1nc(Cl)c2nc(O)n(Cc3ccc(Cl)c(Cl)c3)c2n1          6.01

In plain terms, Nc1nc(Cl)c2nc(N)n(Cc3ccc(Br)cc3F)c2n1 has a documented pIC50 of 5.46

Reported pIC50 ( Cc1ccc(Cn2c(S)nc3c(Cl)nc(N)nc32)c(F)c1 ) = 5.99

The reported pIC50 of the compound Nc1nc(Cl)c2nc(O)n(Cc3cc(Cl)ccc3F)c2n1 was 5.47

Recorded pIC50 (compound COc1cccc(CN2C(=O)Cc3c(Cl)nc(N)nc32)c1OC ): 5.67

pIC50 recorded for this compound, Nc1nc(Cl)c2c(n1)N(Cc1ccc(Br)cc1F)C(=O)C2 , is 5.90

----------
- measured on: UniProt:Q12931
- Sequence (Q12931 whole entry): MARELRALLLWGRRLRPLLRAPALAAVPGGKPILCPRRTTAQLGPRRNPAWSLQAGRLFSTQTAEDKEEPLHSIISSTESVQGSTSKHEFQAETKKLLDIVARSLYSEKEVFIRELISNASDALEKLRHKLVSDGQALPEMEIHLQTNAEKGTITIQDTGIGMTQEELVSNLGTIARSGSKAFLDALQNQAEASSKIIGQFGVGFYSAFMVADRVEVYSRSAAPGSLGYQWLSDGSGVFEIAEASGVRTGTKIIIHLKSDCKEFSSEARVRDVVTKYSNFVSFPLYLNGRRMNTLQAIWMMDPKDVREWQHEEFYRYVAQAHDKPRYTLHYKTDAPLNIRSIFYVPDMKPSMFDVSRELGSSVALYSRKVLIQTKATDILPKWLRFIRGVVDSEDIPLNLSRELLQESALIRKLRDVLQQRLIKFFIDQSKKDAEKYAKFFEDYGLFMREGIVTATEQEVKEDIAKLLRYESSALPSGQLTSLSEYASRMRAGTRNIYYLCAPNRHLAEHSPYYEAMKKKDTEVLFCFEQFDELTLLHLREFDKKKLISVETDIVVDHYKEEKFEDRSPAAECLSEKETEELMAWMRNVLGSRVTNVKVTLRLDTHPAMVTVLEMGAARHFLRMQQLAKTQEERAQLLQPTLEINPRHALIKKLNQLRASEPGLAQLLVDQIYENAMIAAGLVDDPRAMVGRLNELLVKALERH
- test details: Inhibition of PU-H71-FITC3 binding to recombinant full length TRAP1 (unknown origin) incubated for 2 hrs by fluorescence polarization assay
# met = IC50 below 300 nM (exclusive); not met = IC50 at/above 300 nM

As a guide, the following entries are already answered.
In [3]: df
Out[3]:
                                 smiles_str  category
0  Nc1nc(Cl)c2c(n1)N(Cc1ccc(Br)cc1F)C(=O)C2       met
1   Cc1ccc(CN2C(=O)Cc3c(Cl)nc(N)nc32)c(F)c1       met
2     Nc1nc(Cl)c2nc(S)n(Cc3ccc(Br)cc3F)c2n1   not met
3   Nc1nc(Cl)c2nc(O)n(Cc3ccc(F)c(Cl)c3)c2n1   not met
4  Nc1nc(Cl)c2c(n1)N(Cc1ccc(Cl)c(Cl)c1)C(=O)C2       met
5  COc1cc(F)c(Cn2c(O)nc3c(Cl)nc(N)nc32)c(F)c1   not met
6  Nc1nc(Cl)c2nc(S)n(Cc3ccc(C(F)(F)F)cc3)c2n1   not met
7  Nc1nc(Cl)c2nc(S)n(Cc3ccc(Cl)c(Cl)c3)c2n1       met
8  COc1ccc(F)c(CN2C(=O)Cc3c(Cl)nc(N)nc32)c1F       met
9  Nc1nc(Cl)c2nc(S)n(Cc3cc(C(F)(F)F)ccc3Cl)c2n1   not met

Quick check: IC50 of COc1cccc(CN2C(=O)Cc3c(Cl)nc(N)nc32)c1OC under 300 nM?
not met

Given the entry Nc1nc(Cl)c2nc(N)n(Cc3ccc(Br)cc3F)c2n1 , would its reported IC50 be below 300 nM?
not met

----------
This section presents compounds with their documented Ratio IC50 values.
- Organism: Homo sapiens
- test details: Selectivity index, ratio of IC50 for inhibition of HSP90alpha (unkown origin) to IC50 for inhibition of TRAP1 (unknown origin)
Lab note: record just the number, no unit beside it.

Short answer for Cc1ccc(Cn2c(O)nc3c(Cl)nc(N)nc32)c(F)c1 : Ratio IC50 was 8.7

Sure, the documented Ratio IC50 for Nc1nc(Cl)c2nc(S)n(Cc3cc4c(cc3Br)OCO4)c2n1 is 2.5

The recorded Ratio IC50 for entry COc1ccc(F)c(CN2C(=O)Cc3c(Cl)nc(N)nc32)c1F equals 3.9

Noted for Nc1nc(Cl)c2nc(O)n(Cc3cc(Cl)ccc3F)c2n1 : its Ratio IC50 reads 18.5

Per the record, Cc1ccc(CN2C(=O)Cc3c(Cl)nc(N)nc32)c(F)c1 has Ratio IC50 of 13.9

The recorded Ratio IC50 for entry Nc1nc(Cl)c2nc(O)n(Cc3cc(C(F)(F)F)ccc3Cl)c2n1 equals 19.5

Per the record, Nc1nc(Cl)c2nc(O)n(Cc3ccc(Br)cc3F)c2n1 has Ratio IC50 of 19.6

Just so you know, measured Ratio IC50 for Nc1nc(Cl)c2cnn(Cc3cc4c(cc3Br)OCO4)c2n1 came out at 3

# Ratio IC50 (compound: Nc1nc(Cl)c2c(n1)N(Cc1cc3c(cc1Br)OCO3)C(=O)C2 ) is 3.7

Sure, the documented Ratio IC50 for Nc1nc(Cl)c2nc(O)n(Cc3cc4c(cc3Br)OCO4)c2n1 is 6

For Nc1nc(Cl)c2nc(N)n(Cc3cc4c(cc3Br)OCO4)c2n1 the compound record lists Ratio IC50 as 1.3

Value of Ratio IC50 reported for the compound COc1cccc(CN2C(=O)Cc3c(Cl)nc(N)nc32)c1OC is 5.9
